The measurements presented in this section are drawn from the supplement of paper PMC9938120.

Tested on: FMOC14 (patient-derived high-grade serous ovarian cancer cells)
procedureDetails: drug sensitivity score (DSS3, normalised partial AUC of % inhibition dose-response) (DSS (score)); higher = more sensitive (stronger inhibition of viability); extreme values may be limits of the assay
conditions: 72 h; library: FO5A; assay format: 2D, 384-well, CellTiter-Glo
Please go through the items and note down their drug sensitivity score.
Form rule: numeric answer, no unit written next to it.

What measured drug sensitivity score goes with CNCc1ccc(-c2[nH]c3cc(F)cc4c3c2CCNC4=O)cc1 ?
0.3

Also CCCOc1ccn2c(C(C)=O)cc(-c3ccccc3S(C)(=O)=O)c2c1 , if possible.
0

Also C[C@@H]1C=C2C(=O)O[C@@H]3CC[C@H](C1)[C@]23O , if possible.
5.5

Also NC[C@@](O)(c1ccc(Cl)cc1)c1ccc(-c2cn[nH]c2)cc1 , if possible.
0

Also C=CC[C@@H]1/C=C(\C)C[C@H](C)C[C@H](OC)[C@H]2O[C@@](O)(C(=O)C(=O)N3CCCC[C@H]3C(=O)O[C@H](/C(C)=C/[C@@H]3CC[C@@H](O)[C@H](OC)C3)[C@H](C)[C@@H](O)CC1=O)[C@H](C)C[C@@H]2OC , if possible.
1.4

Also COC(=O)c1ccc2c(c1)[nH]c1ncnc(NCCCN3CCCCC3)c12 , if possible.
0.1

Also CCn1c(C(=O)N(C2CC2)C2CC2)cc2c3c(ncn3C)c(Nc3cc(C)n(C)n3)nc21 , if possible.
0

Also CC1(COc2ccc3c(c2)ncn3-c2ccc3cccc(N4CCC(N)CC4)c3n2)COC1 , if possible.
4.4

Also COc1ccc(Cn2ccc3ccc(C(=O)NO)cc32)cc1 , if possible.
1.1

Also CC[C@H](CO)Nc1nc(NCc2ccccc2)c2ncn(C(C)C)c2n1 , if possible.
1.5

* * *

Test system: FMOC25_1 (patient-derived low-grade serous ovarian cancer cells)
procedureDetails: drug sensitivity score (DSS3, normalised partial AUC of % inhibition dose-response) (DSS (score)); higher = more sensitive (stronger inhibition of viability); extreme values may be limits of the assay
conditions: 72 h; library: FO4B; assay format: 2D, 384-well, CellTiter-Glo
Classify as follows. Reported drug sensitivity score greater than or equal to 1: yes (1). Reported drug sensitivity score below: no (0).

Could you please find out whether COCC(=O)NC/C=C/c1ccc2ncnc(Nc3ccc(Oc4ccc(C)nc4)c(C)c3)c2c1 has drug sensitivity score that meets 1 or exceeds it?
yes (1)

Also Oc1ncc(N(CCCl)CCCl)c(O)n1 [Uramustine] , if possible.
no (0)

Also O=C(/C=C\n1cnc(-c2cc(C(F)(F)F)cc(C(F)(F)F)c2)n1)NNc1cnccn1 [Selinexor] , if possible.
yes (1)

Also Nc1ncn([C@H]2C[C@H](O)[C@@H](CO)O2)c(=O)n1 [Decitabine] , if possible.
no (0)

Also Cc1ccccc1C(C(=O)NC1CCCCC1)N(C(=O)Cn1ccnc1C)c1cccc(F)c1 (configuration not stated) [AGI-5198] , if possible.
no (0)

Also Cn1cc(C2=C(c3cn(C4CCN(Cc5ccccn5)CC4)c4ccccc34)C(=O)NC2=O)c2ccccc21 [Enzastaurin] , if possible.
no (0)

Also NCCNc1ccc(NCCN)c2c1C(=O)c1ccncc1C2=O [Pixantrone] , if possible.
no (0)

Also N#Cc1ccc2[nH]c(O)c(-c3ccc(CN4CCOCC4)cn3)c2c1 [AZD-1080] , if possible.
no (0)

Also CO[C@H]1C(=O)[C@]2(C)[C@@H](OC)C[C@H]3OC[C@@]3(OC(C)=O)[C@H]2[C@H](OC(=O)c2ccccc2)[C@]2(O)C[C@H](OC(=O)[C@H](O)[C@@H](NC(=O)OC(C)(C)C)c3ccccc3)C(C)=C1C2(C)C [Cabazitaxel] , if possible.
yes (1)

Also Cn1cnc2c(F)c(Nc3ccc(Br)cc3F)c(C(=O)NOCCO)cc21 [Binimetinib] , if possible.
yes (1)

Also CCOc1cc2ncc(C#N)c(Nc3ccc(OCc4ccccn4)c(Cl)c3)c2cc1NC(=O)/C=C/CN(C)C [Neratinib] , if possible.
yes (1)

* * *

System: FMOC02_2 (patient-derived low-grade serous ovarian cancer cells)
procedureDetails: drug sensitivity score (DSS3, normalised partial AUC of % inhibition dose-response) (DSS (score)); higher = more sensitive (stronger inhibition of viability); extreme values may be limits of the assay
conditions: 72 h; library: FO5A; assay format: 2D, 384-well, CellTiter-Glo
metric: drug sensitivity score

What measured drug sensitivity score goes with C=CCn1c(=O)c2cnc(Nc3ccc(N4CCN(C)CC4)cc3)nc2n1-c1cccc(C(C)(C)O)n1 ?
10.8

Also Oc1ncnc2[nH]ncc12 , if possible.
0

Also COc1cc2c(Nc3ccc(Cl)c(Cl)c3F)ncnc2cc1OC[C@@H]1C[C@@H]2CN(C)C[C@@H]2C1 , if possible.
20.6

Also O[C@H](C[C@H]1c2c(F)cccc2-c2cncn21)[C@H]1CC[C@H](O)CC1 , if possible.
3.6

Also C=CC(=O)Nc1cc(Nc2nccc(-c3cn(C)c4ccccc34)n2)c(OC)cc1N(C)CCN(C)C , if possible.
15

Also O=C(CCNC(=O)c1ccc(OC(F)(F)F)cc1)N[C@@H]1CCCc2ccccc21 , if possible.
3

Also CC#CC(=O)N1CCC[C@H]1c1nc(-c2ccc(C(=O)Nc3ccccn3)cc2)c2c(N)nccn12 , if possible.
0

Also CN(C)C(=O)c1ccc(S(=O)(=O)c2ccc(NC(=O)[C@@](C)(O)C(F)(F)F)c(Cl)c2)cc1 , if possible.
0

Also CNC(=O)c1cc(Oc2ccc(NC(=O)Nc3ccc(Cl)c(C(F)(F)F)c3)cc2)ccn1 , if possible.
0

Also CC(C)c1cc(C(=O)N2Cc3ccc(CN4CCN(C)CC4)cc3C2)c(O)cc1O , if possible.
12.6

Also S=C(NCc1ccc2c(c1)OCO2)N1CCN(c2ncnc3c2oc2ccccc23)CC1 , if possible.
0

* * *

System: FMOC09 (patient-derived high-grade serous ovarian cancer cells)
procedureDetails: drug sensitivity score (DSS3, normalised partial AUC of % inhibition dose-response) (DSS (score)); higher = more sensitive (stronger inhibition of viability); extreme values may be limits of the assay
conditions: 72 h; library: FO5A; assay format: 2D, 384-well, CellTiter-Glo
metric: drug sensitivity score

What measured drug sensitivity score goes with C[C@H](Nc1ncnc2[nH]cnc12)c1cc2ccc(F)cc2nc1-c1ccccn1 ?
0

Also CC(C)(C)c1cnc(CSc2cnc(NC(=O)C3CCNCC3)s2)o1 , if possible.
11.6

Also Nc1nc2cc(-c3ccc4ncc(C(=O)N5CCOCC5)n4c3)ccc2o1 , if possible.
1.3

* * *

Please go through the items and note down their drug sensitivity score.
System: FMOC28 (patient-derived low-grade serous ovarian cancer cells)
procedureDetails: drug sensitivity score (DSS3, normalised partial AUC of % inhibition dose-response) (DSS (score)); higher = more sensitive (stronger inhibition of viability); extreme values may be limits of the assay
conditions: 72 h; library: FO5A; assay format: 2D, 384-well, CellTiter-Glo
Form rule: numeric answer, no unit written next to it.

What measured drug sensitivity score goes with O=S(=O)(c1cccc2c(O)nccc12)N1CCCNCC1 [Hydroxyfasudil] ?
0

Also CC[C@@H]1C(=O)OC[C@@H]1Cc1cncn1C , if possible.
0

Also CCC(C)n1ncn(-c2ccc(N3CCN(c4ccc(OCC5COC(Cn6cncn6)(c6ccc(Cl)cc6Cl)O5)cc4)CC3)cc2)c1=O (configuration not stated) , if possible.
4.4

Also Nc1nc(Nc2ccc3c(c2)CC[C@@H](N2CCCC2)CC3)nn1-c1cc2c(nn1)-c1ccccc1CCC2 , if possible.
0.8

Also C[C@H](Nc1ncnc2nc[nH]c12)c1cc2cccc(Cl)c2c(=O)n1-c1ccccc1 , if possible.
0

Also COc1cccc(-c2ccc(NC(=O)C3=C(C(=O)O)CCC3)c(F)c2)c1 , if possible.
0

Also CCN(CC)CCNC(=O)c1c(C)[nH]c(/C=C2\C(=O)Nc3ccc(F)cc32)c1C , if possible.
0

Also CC(C)C[C@H](NC(=O)[C@@H](COC(C)(C)C)NC(=O)[C@H](Cc1ccc(O)cc1)NC(=O)[C@H](CO)NC(=O)[C@H](Cc1c[nH]c2ccccc12)NC(=O)[C@H](Cc1cnc[nH]1)NC(=O)[C@@H]1CCC(=O)N1)C(=O)N[C@@H](CCCNC(=N)N)C(=O)N1CCC[C@H]1C(=O)NNC(N)=O , if possible.
0

Also Cn1cnc2c(F)c(Nc3ccc(Br)cc3F)c(C(=O)NOCCO)cc21 , if possible.
1.6

Also CS(=O)(=O)c1ccc(-c2cnc(N)c(C(=O)Nc3ccccc3)n2)cc1 , if possible.
0

Also Cc1c(C(=O)Nc2ccc(N3C[C@@H](C)O[C@@H](C)C3)nc2)cccc1-c1ccc(OC(F)(F)F)cc1 , if possible.
2.1

Also COc1ccc(CCc2nc3cc(-c4c(C)noc4C)ccc3n2C[C@H](C)N2CCOCC2)cc1Cl , if possible.
2.4

Also FC(F)(F)c1ccc(/C=C/c2nc(COc3ccc(CCCCn4ccnn4)cc3)co2)cc1 , if possible.
0

Also COc1cc2nccc(Oc3ccc(NC(=O)C4(C(=O)Nc5ccc(F)cc5)CC4)cc3)c2cc1OC [Cabozantinib] , if possible.
0

Also CO[C@@]12[C@H](COC(N)=O)C3=C(C(=O)C(C)=C(N)C3=O)N1C[C@@H]1N[C@@H]12 , if possible.
0.8

Also COCC[n+]1c2c(n(Cc3cnccn3)c1C)C(=O)c1ccccc1C2=O [Sepantronium bromide] , if possible.
43

Also NC(=S)N/N=C/c1ncccc1N , if possible.
5.1
